The entries below come with measured IC90 values attached.
test system: M. tuberculosis H37Rv growth inhibition, 7H9 media; experiment: M. tuberculosis growth inhibition, HTS (AID 449762); conditions: measured here: IC90 growth inhibition;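 further: bacterial growth assessed after seven days of incubation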
Results filed as inconclusive are left out.
The response must be a number in µM with no trailing unit.

Observe how each entry below is paired with its result.
[[record]]
compound = "CCCCN1C(=N)N([C@@H](CCC)CN2CCC[C@H]2CN2C(N)=NC[C@@H]2Cc2ccccc2)C[C@H]1Cc1ccccc1"
measurement_kind = "IC90"
reported = 18.2

[[record]]
compound = "COc1ccccc1OC(=O)c1ccc(S(=O)(=O)N(C)C)cc1"
measurement_kind = "IC90"
reported = 18.4

[[record]]
compound = "O=C(C=C=Nc1ccccc1)C(=O)N=C=Cc1ccccc1"
measurement_kind = "IC90"
reported = 13.1

[[record]]
compound = "Cc1ccccc1-n1c(SCC(=O)N/N=C/c2c(C)nn(-c3ccccc3)c2C)nc2ccccc2c1=O"
measurement_kind = "IC90"
reported = 3.52

[[record]]
compound = "CNC(=O)COC(=O)c1ccc(-c2nc3ccccc3s2)s1"
measurement_kind = "IC90"
reported = 23

[[record]]
compound = "CCOC(=O)C1CCCc2c1[nH]c1c(C(N)=O)cccc21 (stereo unspecified)"
measurement_kind = "IC90"
reported = 13.2


Ask | Check the records and state IC90 for CCN1C(=NCCc2ccc(Br)cc2)N[C@@H](c2ccccc2)[C@H](C(=O)OC)[C@H]1C
Reply | 22.1

---

Known IC90 of a selection of compounds
system: M. tuberculosis H37Rv growth inhibition, 7H9 media; test: M. tuberculosis growth inhibition, HTS (AID 449762); details: measured here: IC90 growth inhibition;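 further: bacterial growth assessed after seven days of incubation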
Records with an inconclusive call do not appear.
Answer in µM, number only, no unit symbol.

// worked examples, IC90 included
[[record]]
compound = "CCOc1ccc(-c2cc(C)[n+](CCc3ccc(OC)c(OC)c3)c(-c3ccc(OCC)cc3)c2)cc1"
reported = 1.8

[[record]]
compound = "CCC(=O)Nc1nc2ccccc2n1Cc1ccc(Cl)cc1"
reported = 4.92

[[record]]
compound = "Cc1ccc(Cn2ccsc2=NC(=O)CCl)cc1"
reported = 1.52

[[record]]
compound = "CN1/C(=C/C(=O)c2nc(S(C)(=O)=O)ncc2Cl)C(C)(C)c2ccccc21"
reported = 10.7

[[record]]
compound = "Cc1cc(NC(=O)CCl)no1"
reported = 3.6

[[record]]
compound = "Cc1ccc(C(=O)O/N=C\\c2ccc(N3CCCCC3)c([N+](=O)[O-])c2)cc1"
reported = 49

[[record]]
compound = "CN(C)S(=O)(=O)c1cccc(NC(=O)CSc2cccc3cccnc23)c1"
reported = 65.1

[[record]]
compound = "CC(=O)c1ccc(Sc2nnnn2-c2ccccc2)c([N+](=O)[O-])c1"
reported = 13.3


Ask | Could you please provide reported IC90 for COc1ccc(-c2nnn(CC(=O)OC3CCCCC3)n2)cc1OC ? Thanks!
Reply | 62.7

Ask | State its IC90: Cc1cccc(C)c1OCCCCc1c(C)n[nH]c1C
Reply | 26.4

Ask | Consider the compound CCOCCN1CCN(c2c(CC)c(C)nc3cc(-c4cc(OC)cc(OC)c4)nn23)CC1 . State its measured IC90.
Reply | 38.9

Ask | Annotate the compound Cc1ccnc(Sc2ccc([N+](=O)[O-])cc2[N+](=O)[O-])n1 with its measured IC90.
Reply | 15.1

Ask | Input O=C(N/N=C\c1ccc[nH]1)c1cncc(Br)c1 , output reported IC90.
Reply | 49

Ask | Query IC90 for Oc1ccccc1/C=N/NC(=S)NC1CC2CC1C1C=CCC21 (centres undefined)
Reply | 12.3

Ask | Give the reported IC90 for this compound. O=C(/C=C/c1cccnc1)c1cccc(O)c1
Reply | 14.8
